- protocolNotes: Dissolution test (paddle apparatus, Ph. Eur. 2.9.3), release of active ingredient
- Format: physicochemical
- conditionNotes: time 12 hour
measuredEndpoint: Derivative (of % of active ingredient released over time) (%/min)
Give just the number in %/min; leave the unit off.

Which Derivative (of % of active ingredient released over time) value belongs to COc1cc2c(cc1OC)CC(=O)N(CCCN(C)C[C@H]1Cc3cc(OC)c(OC)cc31)CC2 [ivabradine hemipamoate] ?
0.03

----------
- protocolNotes: Dissolution test (paddle apparatus, Ph. Eur. 2.9.3), release of active ingredient
- Type: physicochemical
- conditionNotes: time 2 hour
measuredEndpoint: Derivative (of % of active ingredient released over time) (%/min)
Give just the number in %/min; leave the unit off.

Which Derivative (of % of active ingredient released over time) value belongs to COc1cc2c(cc1OC)CC(=O)N(CCCN(C)C[C@H]1Cc3cc(OC)c(OC)cc31)CC2 [ivabradine hemipamoate] ?
0.23

Hey, just so you know, these numbers are from patent US9856221B2.
